These measurements were taken from patent US20140314784A1.

In this section, each of the binders is paired with its reported FL1.
Measured on: T1, human CXCR4 (human, UniProt P61073 1-352)
T1 construct: also called CXCR4 receptor; C-X-C chemokine receptor type 4
Assay: FMAT, hybridoma supernatant on HEK293T cells transiently overexpressing full-length human CXCR4
Measured attribute: FL1

1) 6C7 (antibody, V domains shown, Fully human monoclonal antibody from XenoMouse hybridoma; also called antibody 6C7; mAb 6C7) VH: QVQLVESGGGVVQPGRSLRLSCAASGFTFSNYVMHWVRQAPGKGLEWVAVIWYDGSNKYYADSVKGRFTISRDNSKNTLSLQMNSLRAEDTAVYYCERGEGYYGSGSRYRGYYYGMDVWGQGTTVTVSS VL: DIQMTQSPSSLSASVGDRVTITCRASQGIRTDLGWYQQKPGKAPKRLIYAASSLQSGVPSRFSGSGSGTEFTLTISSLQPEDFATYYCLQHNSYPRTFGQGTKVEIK    7990
2) 7C8 (antibody, V domains shown, Fully human monoclonal antibody from XenoMouse hybridoma) VH: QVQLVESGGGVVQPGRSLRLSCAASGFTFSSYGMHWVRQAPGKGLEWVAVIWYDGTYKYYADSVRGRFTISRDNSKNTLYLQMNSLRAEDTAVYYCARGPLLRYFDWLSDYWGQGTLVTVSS VL: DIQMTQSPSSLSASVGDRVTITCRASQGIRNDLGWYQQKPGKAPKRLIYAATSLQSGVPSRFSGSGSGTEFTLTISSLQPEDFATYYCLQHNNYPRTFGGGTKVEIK    7940
3) 5C9 (antibody, V domains shown, Fully human monoclonal antibody from XenoMouse hybridoma (lambda light chain)) VH: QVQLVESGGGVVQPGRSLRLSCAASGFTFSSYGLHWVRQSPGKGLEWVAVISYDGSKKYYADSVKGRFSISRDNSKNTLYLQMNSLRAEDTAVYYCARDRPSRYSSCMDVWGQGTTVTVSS VL: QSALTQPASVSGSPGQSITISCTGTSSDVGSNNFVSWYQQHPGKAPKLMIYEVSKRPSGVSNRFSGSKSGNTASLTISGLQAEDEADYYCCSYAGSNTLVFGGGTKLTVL    8800
4) 4C1 (antibody, V domains shown, Fully human monoclonal antibody from XenoMouse hybridoma (strains XMG2 IgG2 or XMG4 IgG4, kappa/lambda); Tested as hybridoma supernatant or purified antibody; also called mAb 4C1; Mab4C1) VH: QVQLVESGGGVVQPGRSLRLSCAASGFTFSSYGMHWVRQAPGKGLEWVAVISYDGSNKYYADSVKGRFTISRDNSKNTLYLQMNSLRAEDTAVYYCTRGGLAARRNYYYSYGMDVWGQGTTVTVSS VL: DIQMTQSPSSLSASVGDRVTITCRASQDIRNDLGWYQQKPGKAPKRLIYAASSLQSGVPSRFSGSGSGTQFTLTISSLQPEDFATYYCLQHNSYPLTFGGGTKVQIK    8330
